- SYSTEM: Abf1 (UniProt P14164)
- Sequence: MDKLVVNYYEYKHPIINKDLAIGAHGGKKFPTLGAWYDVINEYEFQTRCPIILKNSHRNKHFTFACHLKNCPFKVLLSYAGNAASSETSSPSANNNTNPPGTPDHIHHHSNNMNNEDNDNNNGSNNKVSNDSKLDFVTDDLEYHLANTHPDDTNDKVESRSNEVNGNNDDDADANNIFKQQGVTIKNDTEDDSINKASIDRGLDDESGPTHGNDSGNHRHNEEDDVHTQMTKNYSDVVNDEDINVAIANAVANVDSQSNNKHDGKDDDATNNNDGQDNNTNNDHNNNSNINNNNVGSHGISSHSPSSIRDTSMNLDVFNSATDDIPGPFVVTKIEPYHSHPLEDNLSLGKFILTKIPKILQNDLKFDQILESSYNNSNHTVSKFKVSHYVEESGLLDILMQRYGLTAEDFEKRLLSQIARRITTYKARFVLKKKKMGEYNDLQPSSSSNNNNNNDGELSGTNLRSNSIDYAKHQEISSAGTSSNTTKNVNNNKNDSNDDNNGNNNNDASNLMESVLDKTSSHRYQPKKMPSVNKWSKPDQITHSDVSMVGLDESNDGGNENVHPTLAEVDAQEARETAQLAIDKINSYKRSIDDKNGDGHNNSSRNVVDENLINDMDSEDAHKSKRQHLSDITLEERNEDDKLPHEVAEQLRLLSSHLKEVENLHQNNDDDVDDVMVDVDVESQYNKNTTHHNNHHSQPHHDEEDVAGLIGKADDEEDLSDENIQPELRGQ
- ASSAY_TEXT: PBM E-score (8-mer binding enrichment) (E-score (-0.5 to 0.5)); higher = stronger / more preferred TF binding
- CONDITION_SET: protein concentration: 200 nM; construct: GST-full length
The full ranking holds about 33,000 sequences; the median of “E-score (-0.5 to 0.5)” is about -0.015, and the highest 2% start at about 0.3. The sample holds the highest values, similar sequences and a random draw of the others, so the mix is not that of the screen.
// reported PBM E-score for each item listed
MEASURED_PROPERTY: PBM E-score

• AAATCACC = 0.336
• AGTAGTTG = 0.067
• CCGTGCGC = 0.218
• GCGATACA = 0.139
• CCAGGATA = 0.126
• AAGGCTTA = -0.214
• CAATCACC = 0.0554
• CCGTGCAG = 0.192
• ACATACTA = 0.109
• TCATACGA = 0.328
• ATACTTGA = -0.0426
• GAGAAGGA = -0.18
• CCTCCCAG = -0.196
• GCATACGA = 0.0403
• GCGTGCAC = -0.0221
• CCGTGCAC = 0.31
• AAATCACA = 0.0176
• CCGTGCAA = 0.334
• GGGATATA = -0.045
• AATTTATA = 0.191
• CTGTGATC = 0.0861
• AAGATATG = 0.283
• ACGGCAAT = 0.277
• TCGTGCAA = 0.361
• AAAAGGCT = -0.0975
• GATGATGC = 0.152
• CATGATGA = 0.365
• CTGGATGA = 0.0651
• ATACTTAG = -0.0263
• ATGATATG = 0.367
• CGTTTATC = 0.297
• TCCGTTAA = 0.0849
• GAGATATA = 0.147
• ACGTGCAA = 0.21
• AAGATATA = 0.162

Data provenance is the supplement of paper PMC3334620.
